- assay-target: Butyrylcholinesterase from equine serum (Equus caballus, UniProt P81908)
- Sequence (P81908 whole entry): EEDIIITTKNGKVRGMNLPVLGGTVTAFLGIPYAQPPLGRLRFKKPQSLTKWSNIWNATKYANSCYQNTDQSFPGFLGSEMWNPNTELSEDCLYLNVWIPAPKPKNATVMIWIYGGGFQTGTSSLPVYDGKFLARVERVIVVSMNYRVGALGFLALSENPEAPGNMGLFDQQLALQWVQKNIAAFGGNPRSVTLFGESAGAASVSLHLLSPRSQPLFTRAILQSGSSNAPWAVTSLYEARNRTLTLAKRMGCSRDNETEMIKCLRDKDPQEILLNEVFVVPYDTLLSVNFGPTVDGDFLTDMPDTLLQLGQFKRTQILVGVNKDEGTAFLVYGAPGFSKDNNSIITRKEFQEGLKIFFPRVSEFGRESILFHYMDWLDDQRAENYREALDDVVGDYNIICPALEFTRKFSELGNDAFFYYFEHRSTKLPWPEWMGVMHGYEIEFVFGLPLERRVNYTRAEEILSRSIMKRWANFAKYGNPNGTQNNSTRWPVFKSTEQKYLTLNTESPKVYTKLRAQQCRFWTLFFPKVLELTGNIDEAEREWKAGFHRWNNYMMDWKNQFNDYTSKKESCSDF
- protocol-details: biochemical
Values of IC50 strictly less than 3 µM map to met, and values of at least 3 µM map to not met.

NNc1ccc(C(=O)NCCCCNc2c3c(nc4ccccc24)CCC3)cn1: met
Cl.NNc1ccc(C(=O)NCCNc2c3c(nc4ccccc24)CCC3)cn1: met
NNc1ccc(C(=O)NCCCNc2c3c(nc4ccccc24)CCC3)cn1: met
NNc1ccc(C(=O)NCCCCCCCCCNc2c3c(nc4ccccc24)CCC3)cn1: not met
NNc1ccc(C(=O)NCCCCCCCNc2c3c(nc4ccccc24)CCC3)cn1: not met

Prompt line: Is IC50 strictly under 3 µM for the entry NNc1ccc(C(=O)NCCCCCNc2c3c(nc4ccccc24)CCC3)cn1 ?
Response line: not met

Prompt line: Is IC50 strictly under 3 µM for the entry NNc1ccc(C(=O)NCCCCCCNc2c3c(nc4ccccc24)CCC3)cn1 ?
Response line: not met

Prompt line: Is IC50 strictly under 3 µM for the entry NNc1ccc(C(=O)NCCCCCCCCNc2c3c(nc4ccccc24)CCC3)cn1 ?
Response line: not met
